FYI, the data here is from ChEMBL document CHEMBL1133214.

Tested on: Candida albicans
Test protocol: Percent inhibition rate of 100 ug/mL against chitin synthase isolated from Candida albicans.
Endpoint name: Rate (%)

Field: example entries. Status: answers known.
CC(C)(SCc1ccc2ccccc2c1)[C@H](N)C(=O)N[C@H](C(=O)O)[C@H]1O[C@@H](n2ccc(=O)[nH]c2=O)[C@H](O)C1O (single isomer, unassigned)    94
N[C@@H](CSCc1ccccc1)C(=O)N[C@H](C(=O)O)[C@H]1O[C@@H](n2ccc(=O)[nH]c2=O)[C@H](O)C1O (single isomer, unassigned)    78
N[C@@H](Cc1ccc(O)cc1)C(=O)N[C@H](C(=O)O)[C@H]1O[C@@H](n2ccc(=O)[nH]c2=O)[C@H](O)C1O (single isomer, unassigned)    99

A = CCCCCCCCCCCCSC[C@H](N)C(=O)N[C@H](C(=O)O)[C@H]1O[C@@H](n2ccc(=O)[nH]c2=O)[C@H](O)C1O (single isomer, unassigned)
B = N[C@@H](Cc1cccc2ccccc12)C(=O)N[C@H](C(=O)O)[C@H]1O[C@@H](n2ccc(=O)[nH]c2=O)[C@H](O)C1O (single isomer, unassigned)
[in] Look at A and B . Which one has the lower recorded Rate number? When you have decided, please share the label of that item.
[out] A
(A: 64%, B: 99%)

====

Tested on: Candida albicans
Test protocol: Percent inhibition rate of 100 ug/mL against chitin synthase isolated from Candida albicans.
Endpoint name: Rate (%)

N[C@@H](CSc1ccc(C(=O)O)cn1)C(=O)N[C@H](C(=O)O)[C@H]1O[C@@H](n2ccc(=O)[nH]c2=O)[C@H](O)C1O (single isomer, unassigned)    64
N[C@@H](Cc1cccnc1)C(=O)N[C@H](C(=O)O)[C@H]1O[C@@H](n2ccc(=O)[nH]c2=O)[C@H](O)C1O (single isomer, unassigned)    82
N[C@@H](Cc1cc2ccccc2c2ccccc12)C(=O)N[C@H](C(=O)O)[C@H]1O[C@@H](n2ccc(=O)[nH]c2=O)[C@H](O)C1O (single isomer, unassigned)    99
Nc1ccc(SC[C@H](N)C(=O)N[C@H](C(=O)O)[C@H]2O[C@@H](n3ccc(=O)[nH]c3=O)[C@H](O)C2O)nc1 (single isomer, unassigned)    42
N[C@@H](CSc1ccc2ccccc2c1)C(=O)N[C@H](C(=O)O)[C@H]1O[C@@H](n2ccc(=O)[nH]c2=O)[C@H](O)C1O (single isomer, unassigned)    40
N[C@@H](Cc1ccc(O)cn1)C(=O)N[C@H](C(=O)O)[C@H]1O[C@@H](n2ccc(=O)[nH]c2=O)[C@H](O)C1O (single isomer, unassigned)    34
N[C@@H](Cc1ccc2ccccc2c1)C(=O)N[C@H](C(=O)O)[C@H]1O[C@@H](n2ccc(=O)[nH]c2=O)[C@H](O)C1O (single isomer, unassigned)    96
CC(C)(SCc1ccc(O)cc1)[C@H](N)C(=O)N[C@H](C(=O)O)[C@H]1O[C@@H](n2ccc(=O)[nH]c2=O)[C@H](O)C1O (single isomer, unassigned)    99
CC(C)(SCc1ccc(O)cn1)[C@H](N)C(=O)N[C@H](C(=O)O)[C@H]1O[C@@H](n2ccc(=O)[nH]c2=O)[C@H](O)C1O (single isomer, unassigned)    58

I = CC(C)=CCC/C(C)=C/CSC[C@H](N)C(=O)N[C@H](C(=O)O)[C@H]1O[C@@H](n2ccc(=O)[nH]c2=O)[C@H](O)C1O (single isomer, unassigned)
II = CC(C)(SCc1cccc(O)c1)[C@H](N)C(=O)N[C@H](C(=O)O)[C@H]1O[C@@H](n2ccc(=O)[nH]c2=O)[C@H](O)C1O (single isomer, unassigned)
[in] Sorting by Rate in descending order, would I or II appear first? Record your answer as the label of the chosen record.
[out] II
